assay-metric: MDR1-MDCK efflux ratio
I only need the number, thanks.

[in] Look up MDR1-MDCK efflux ratio for this molecule: CC(O)(C#Cc1ccc2c(c1)N(c1nc(N)ncc1Cl)CC2)c1nccs1 (centres undefined)
[out] 5.75

[in] Look up MDR1-MDCK efflux ratio for this molecule: COc1ccc(-c2cn3c4ccccc4nc3n2CCO)cc1
[out] 0.389

[in] Look up MDR1-MDCK efflux ratio for this molecule: CCC(C)(C)c1ccc(Oc2ccc(NC(=O)CSc3cccc[n+]3[O-])cc2)cc1
[out] 2.2

[in] Look up MDR1-MDCK efflux ratio for this molecule: COc1ccc(Cc2cccc(C3CCN(C(=O)C4CCCC4)CC3)n2)cc1
[out] 0.66

[in] Look up MDR1-MDCK efflux ratio for this molecule: OC[C@@H](c1ccccc1)n1cc(CCc2ccccc2)nn1
[out] 0.889

[in] Look up MDR1-MDCK efflux ratio for this molecule: CN1C(=O)COc2ccc(NC(=O)CCN3C(=O)COc4ccc(Cl)cc43)cc21
[out] 9.31

[in] Look up MDR1-MDCK efflux ratio for this molecule: Cc1nnc(N2CCCSCC2)c(C#N)c1C
[out] 0.646

[in] Look up MDR1-MDCK efflux ratio for this molecule: CN(C)c1ccc(C(=O)N2CCN3C(=O)N(Cc4ccccc4)C(=O)[C@H]3C2)cc1
[out] 1.61

[in] Look up MDR1-MDCK efflux ratio for this molecule: O=C(NCc1cccs1)c1cccnc1
[out] 0.62

[in] Look up MDR1-MDCK efflux ratio for this molecule: CCc1cc(CN(C)c2nccc(-c3ccc(C)nc3C)n2)on1
[out] 0.673

[in] Look up MDR1-MDCK efflux ratio for this molecule: Cc1ccc(C2(O)CCN(Cc3cn(C)c4ccc(F)cc34)CC2)cc1
[out] 0.869

[in] Look up MDR1-MDCK efflux ratio for this molecule: COc1ccc(CCCN2CCN(c3cnn(C)c3)C(=O)C2)cc1F
[out] 0.734

[in] Look up MDR1-MDCK efflux ratio for this molecule: Cc1cccn(Cc2cccc(C#N)c2)c1=O
[out] 0.69

[in] Look up MDR1-MDCK efflux ratio for this molecule: O=C(NCCN1CCc2ccccc2C1=O)c1ccon1
[out] 1.18

----------
Give measured MDR1-MDCK efflux ratio for each item. Keep answers brief.

[in] Look up MDR1-MDCK efflux ratio for this compound: COc1cc(C(=O)O)c(N)c(OC)c1OC
[out] 1.69

[in] Look up MDR1-MDCK efflux ratio for this compound: Cc1ccccc1CSc1ccc(-c2ccccn2)nn1
[out] 0.589

[in] Look up MDR1-MDCK efflux ratio for this compound: COc1ccc(Cl)cc1C(=O)NCCc1ccc(S(=O)(=O)NC(=O)NC2CCCCC2)cc1
[out] 123

[in] Look up MDR1-MDCK efflux ratio for this compound: O=C(Nc1nc2c(s1)COc1ccccc1-2)c1cnc(Cl)c(Cl)c1
[out] 1.02

[in] Look up MDR1-MDCK efflux ratio for this compound: Cc1cccc(OC2CCN(CC(N)=O)CC2)c1
[out] 0.636

[in] Look up MDR1-MDCK efflux ratio for this compound: CC(=O)c1ccccc1-c1cccc(C(=O)NCCCN2CCCC2)c1
[out] 133

[in] Look up MDR1-MDCK efflux ratio for this compound: COC(=O)C1=NOC2(CCN(CCC(C)(C)C)CC2)C1
[out] 0.474

[in] Look up MDR1-MDCK efflux ratio for this compound: O=C(c1ccc(-c2ccncc2)cc1)N1CCC(O)(CN2CCCC2)CC1
[out] 17.7

[in] Look up MDR1-MDCK efflux ratio for this compound: Fc1cc(-c2ccncc2)ccc1CNc1ncccn1
[out] 0.843

[in] Look up MDR1-MDCK efflux ratio for this compound: Cc1nc(NCCN2C(=O)CCC2=O)c2c(C)csc2n1
[out] 6.04

[in] Look up MDR1-MDCK efflux ratio for this compound: O=C(Cn1cccc(C(=O)Nc2cccc(-n3cccn3)c2)c1=O)NC1CCCCC1
[out] 18.7

[in] Look up MDR1-MDCK efflux ratio for this compound: COCC1(CNS(=O)(=O)c2ccc3[nH]cnc3c2)CCC1
[out] 32.8

[in] Look up MDR1-MDCK efflux ratio for this compound: Cc1ccc(C(=O)Nc2ccccc2C(C)(C)C)cn1
[out] 0.696

[in] Look up MDR1-MDCK efflux ratio for this compound: COc1ccc(-n2c(Cn3cnc(C#N)n3)nc3ccccc32)cc1
[out] 1.37

[in] Look up MDR1-MDCK efflux ratio for this compound: COc1ccc(CN[C@@H]2CCC[C@H]2Cc2cc(C)no2)cc1OC
[out] 3.3

[in] Look up MDR1-MDCK efflux ratio for this compound: O=c1c(CO)cc2cc3c(cc2n1Cc1ccccn1)CCC3
[out] 1.39

[in] Look up MDR1-MDCK efflux ratio for this compound: COc1cc2nn(CCC(C)(C)O)cc2cc1NC(=O)c1ccn(C(F)F)n1
[out] 10.2

[in] Look up MDR1-MDCK efflux ratio for this compound: Cc1ccc2nc3c(c(C(=O)NCc4cnn(C)c4)c2c1)CCCC3
[out] 17.8

[in] Look up MDR1-MDCK efflux ratio for this compound: Cc1cnn(CCNC(=O)C2(Cn3cccn3)CC2)c1
[out] 6.11

[in] Look up MDR1-MDCK efflux ratio for this compound: COCCCNc1ncc(-c2cc(C)no2)c(C(C)C)n1
[out] 0.439

[in] Look up MDR1-MDCK efflux ratio for this compound: CN(C(=O)CSC(C)(C)C)c1ccccc1C#N
[out] 0.808

[in] Look up MDR1-MDCK efflux ratio for this compound: Cc1cc(CNC(=O)N(C)Cc2c(C)nn(C)c2C)cnc1C
[out] 94.1

[in] Look up MDR1-MDCK efflux ratio for this compound: CC(C)c1nc2c(n1C)CCN(C(=O)c1cccc(C(F)(F)F)c1F)C2
[out] 8.01

[in] Look up MDR1-MDCK efflux ratio for this compound: CC(C)c1cc(C(C)C)c(CC(=O)NS(=O)(=O)Oc2c(C(C)C)cccc2C(C)C)c(C(C)C)c1
[out] 4.45

[in] Look up MDR1-MDCK efflux ratio for this compound: CC(=O)c1cc(Br)cc(F)c1OCc1ccccn1
[out] 0.622

[in] Look up MDR1-MDCK efflux ratio for this compound: COCC1(C(=O)N(C)Cc2ccc3ccccc3n2)CCC1
[out] 1.14

[in] Look up MDR1-MDCK efflux ratio for this compound: O=C(NCc1ccccc1)c1ccc(NS(=O)(=O)c2ccc(C3CCCCC3)cc2)cc1
[out] 2.69

[in] Look up MDR1-MDCK efflux ratio for this compound: O=C(NCc1nnc2c(O)nccn12)C1CCCC1
[out] 1.22

[in] Look up MDR1-MDCK efflux ratio for this compound: CCC1(O)CN(c2ncccc2C#N)C1
[out] 0.523

[in] Look up MDR1-MDCK efflux ratio for this compound: N#Cc1cccc(CN2CCOC[C@H](Oc3ccccc3)C2)c1
[out] 0.507

[in] Look up MDR1-MDCK efflux ratio for this compound: Fc1cccc(N2CCCC2)c1CN1CCN(Cc2ccon2)CC1
[out] 0.64

[in] Look up MDR1-MDCK efflux ratio for this compound: CNC(=O)c1ccc(N2CCCc3cc(OC)ccc3C2)nn1
[out] 0.886

[in] Look up MDR1-MDCK efflux ratio for this compound: CCc1c2c(nc3ccc(O)cc13)-c1cc3c(c(=O)n1C2)COC(=O)[C@]3(O)CC
[out] 50.8

[in] Look up MDR1-MDCK efflux ratio for this compound: N#CCCCN1CCN(c2cc(C#N)ccn2)CC1
[out] 0.56

[in] Look up MDR1-MDCK efflux ratio for this compound: COc1c(C)cccc1CN1CCC(O)(c2ccc(F)cc2)CC1
[out] 0.581

----------
Give measured intrinsic clearance, human liver microsomes for each item. Keep answers brief.

[in] Look up intrinsic clearance, human liver microsomes for this molecule: CN(C(=O)c1cc(N2CCNC2=O)ccc1F)C1CCC(N)CC1 (stereo not given)
[out] ≤ 4.74 mL/min/kg

[in] Look up intrinsic clearance, human liver microsomes for this molecule: Cn1cnnc1CCn1ccnc1-c1cc2ccccc2s1
[out] ≤ 4.74 mL/min/kg

[in] Look up intrinsic clearance, human liver microsomes for this molecule: Cc1cc(C)nc(N(C)CC(=O)NC2CC2)n1
[out] ≤ 4.74 mL/min/kg

[in] Look up intrinsic clearance, human liver microsomes for this molecule: CC(C)NC(=O)CN(C#N)c1ccccc1
[out] ≤ 4.74 mL/min/kg

[in] Look up intrinsic clearance, human liver microsomes for this molecule: Cc1cccc(OCC(=O)Nc2ccn(C)n2)c1
[out] 21.1 mL/min/kg

[in] Look up intrinsic clearance, human liver microsomes for this molecule: CC(C)Cc1sc(N)nc1-c1ccc(P(=O)(O)O)o1
[out] ≤ 4.74 mL/min/kg

[in] Look up intrinsic clearance, human liver microsomes for this molecule: O=c1c2c(nc3ccccn13)CCN(S(=O)(=O)C1CCCCC1)C2
[out] 19.9 mL/min/kg

[in] Look up intrinsic clearance, human liver microsomes for this molecule: Cn1ccc(NC(=O)[C@H]2CCCCN2C(=O)OC(C)(C)C)n1
[out] ≤ 4.74 mL/min/kg

[in] Look up intrinsic clearance, human liver microsomes for this molecule: Cc1nn(C)c2nc(N3CCN(C)C[C@@H]3c3ccccc3)sc12
[out] 18.5 mL/min/kg

[in] Look up intrinsic clearance, human liver microsomes for this molecule: CCOc1cc(N2CCc3nc[nH]c3C2)ncn1
[out] ≤ 4.74 mL/min/kg

[in] Look up intrinsic clearance, human liver microsomes for this molecule: O=C(Nc1ccn(Cc2ccc(O)cc2C(F)(F)F)n1)c1c(F)cccc1F
[out] 16.7 mL/min/kg

[in] Look up intrinsic clearance, human liver microsomes for this molecule: Cc1cnn(Cc2nnc(-c3ccccc3)s2)c1
[out] 44 mL/min/kg

[in] Look up intrinsic clearance, human liver microsomes for this molecule: COc1cc(CNc2nnn[nH]2)cc(Br)c1OCc1ccc(Cl)cc1
[out] 10.5 mL/min/kg

[in] Look up intrinsic clearance, human liver microsomes for this molecule: Cc1nc(NCc2cn(C)nc2-c2cccs2)n(C)n1
[out] ≤ 4.74 mL/min/kg

[in] Look up intrinsic clearance, human liver microsomes for this molecule: CCn1ncc(-c2cc(C(F)F)nc(NCCCOC)n2)c1C
[out] 43.6 mL/min/kg

[in] Look up intrinsic clearance, human liver microsomes for this molecule: O=c1cc(-c2cc(F)c(Cl)nc2Cl)[nH]c2c(-c3ccccc3)c(C(F)(F)F)nn12
[out] ≤ 4.74 mL/min/kg

[in] Look up intrinsic clearance, human liver microsomes for this molecule: CC(C)c1nc2c(n1C)CCN(C(=O)c1cccc(C(F)(F)F)c1F)C2
[out] 32.7 mL/min/kg

[in] Look up intrinsic clearance, human liver microsomes for this molecule: CCOC(=O)C1(Cc2cc(-c3ccc(F)cc3)no2)CCN(Cc2ccccc2O)CC1
[out] 155 mL/min/kg

[in] Look up intrinsic clearance, human liver microsomes for this molecule: Cn1nc(-c2cc(F)cc(F)c2)cc1N
[out] 43.8 mL/min/kg

[in] Look up intrinsic clearance, human liver microsomes for this molecule: CN(C)c1cnn(CCC(C#N)(c2ccccc2)c2ccccc2)c(=O)c1
[out] 124 mL/min/kg

[in] Look up intrinsic clearance, human liver microsomes for this molecule: O=C(O)c1ccc(CN2CC[C@H](c3nc4cc(Cl)ccc4o3)C2)cc1
[out] ≤ 4.74 mL/min/kg

[in] Look up intrinsic clearance, human liver microsomes for this molecule: O=C(Cc1csc(-c2ccccn2)n1)NC1CCCCCC1
[out] 87 mL/min/kg

[in] Look up intrinsic clearance, human liver microsomes for this molecule: CO[C@H]1/C=C\C=C(/C)C(=O)NC2=CC(=O)C(NCCN(C)C)=C(C[C@@H](C)C[C@@H](OC)[C@@H](O)[C@@H](C)/C=C(\C)[C@H]1OC(N)=O)C2=O
[out] 21 mL/min/kg

[in] Look up intrinsic clearance, human liver microsomes for this molecule: c1ccc(-c2cc3c(N4CCC(c5ncc[nH]5)CC4)ncnc3s2)cc1
[out] 117 mL/min/kg

[in] Look up intrinsic clearance, human liver microsomes for this molecule: CC(O)(C#Cc1ccc2c(c1)N(c1nc(N)ncc1Cl)CC2)c1nccs1 (stereo not given)
[out] 72.5 mL/min/kg

[in] Look up intrinsic clearance, human liver microsomes for this molecule: CCN1CCOC(C(=O)N2CCC(c3cn[nH]c3)CC2)C1 (stereo not given)
[out] ≤ 4.74 mL/min/kg

[in] Look up intrinsic clearance, human liver microsomes for this molecule: COc1cc(CNc2nc3ccccc3nc2C)ccn1
[out] 11 mL/min/kg

[in] Look up intrinsic clearance, human liver microsomes for this molecule: CCN(CC)CC(=O)Nc1ccc(Oc2ccc(C)nn2)cc1
[out] ≤ 4.74 mL/min/kg

[in] Look up intrinsic clearance, human liver microsomes for this molecule: CN(C)C(=O)C(C)(C)NC(=O)OC(C)(C)C
[out] ≤ 4.74 mL/min/kg

[in] Look up intrinsic clearance, human liver microsomes for this molecule: CC(C)(C)C(=O)Nc1nnc(Cc2ccccc2)s1
[out] ≤ 4.74 mL/min/kg
